Where do these numbers come from? They come from patent US20150004189A1.

IC50 for assorted binders
biological target: HLA-DQ molecule DQB1*0602 (human); experiment: inhibition of radiolabeled peptide binding to purified HLA
Property Label: IC50 (nM)

GGSILKISNKYHTKG [Bet v 1 peptide 3324.0352 (position 111)] | 6060
RGIEYIQHNGVVQES [Der p 1 peptide 3324.0831 (position 176)] | 859
IVLNHMTGAQSGKGT [Der p 4 peptide 3324.0987 (position 96)] | 65
RTLNKIVYIKPAKNI [Bet v 6 peptide 3324.0387 (position 206)] | 58
EIYNMVKFRMIAGQE [Der p 4 peptide 3324.0978 (position 386)] | 368
SRGNRAFIAINLQKN [Der p 4 peptide 3324.0974 (position 416)] | 98
AFMLAWNYGVPRVMS [Der p 4 peptide 3324.0977 (position 321)] | 762
IEFRFYKEITNVFRG [Der p 4 peptide 3324.0976 (position 251)] | 318
FDAFVAYHIGARIVS [Der p 4 peptide 3324.0971 (position 482)] | 54
LEKISNEIKIVATPD [Bet v 1 peptide 3324.0353 (position 96)] | 19
